# Test target: Proteinase-activated receptor 2 (Homo sapiens, UniProt P55085)
# Sequence (P55085 whole entry): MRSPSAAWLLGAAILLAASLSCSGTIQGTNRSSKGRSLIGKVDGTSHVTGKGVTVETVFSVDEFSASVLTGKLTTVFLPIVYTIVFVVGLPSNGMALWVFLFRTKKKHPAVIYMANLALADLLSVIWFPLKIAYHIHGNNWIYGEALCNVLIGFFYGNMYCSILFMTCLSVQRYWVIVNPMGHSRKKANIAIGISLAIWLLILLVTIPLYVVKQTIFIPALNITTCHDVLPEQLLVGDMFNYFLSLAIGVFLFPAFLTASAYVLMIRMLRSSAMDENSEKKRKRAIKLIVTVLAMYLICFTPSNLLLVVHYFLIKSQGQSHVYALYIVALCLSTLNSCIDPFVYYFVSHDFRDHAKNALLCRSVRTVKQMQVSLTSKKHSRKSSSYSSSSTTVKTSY
# Assay text: Agonist activity at PAR2 (unknown origin) by cell-based assay
pEC50: −log10 of the molar value. Where a SMILES comes first, the peptide text is derived from it.
Measured metric: pEC50

INSERT INTO results (compound, measured_number) VALUES
  ('CC[C@H](C)[C@H](NC(=O)[C@H](CC(C)C)NC(=O)[C@@H](N)CO)C(=O)NCC(=O)N[C@@H](CCCNC(=N)N)C(=O)N[C@@H](CC(C)C)C(N)=O (H-SLIGRL-NH2)', 5.30);

====

# Test target: Proteinase-activated receptor 2 (Homo sapiens)
# Assay text: Agonist activity at human PAR2 expressed in HEK293T cells assessed as stimulation of phosphatidylinositol hydrolysis after 45 mins by scintillation counting analysis
# Format: functional, cell-based, HEK-293T
Measured metric: EC50 (nM)

INSERT INTO assay_data (structure_smiles, test_target, measured_metric, measured_number) VALUES
  ('C/C(=N\NC(=O)[C@@H]1C(=O)NC[C@H]1c1ccccc1)c1cccc(Br)c1', 'Proteinase-activated receptor 2 (Homo sapiens)', 'EC50', 30);

====

# Test target: Proteinase-activated receptor 2 (Homo sapiens, UniProt P55085)
# Assay text: Antagonist activity at human PAR2 expressed in human A549 cells assessed as inhibition of 2f-LIGRLO-NH2-induced NFkappaB activation by luciferase reporter gene assay
# Format: cell-based
Measured metric: IC50 (nM)

INSERT INTO assay_data (compound, measured_number) VALUES
  ('CC(C)[C@]12O[C@H]1[C@@H]1O[C@]13[C@]1(O[C@H]1C[C@H]1C4=C(CC[C@@]13C)C(=O)OC4)[C@@H]2O [TRIPTOLIDE]', 14);

====

# Test target: Proteinase-activated receptor 2 (Homo sapiens, UniProt P55085)
# Assay text: Antagonist activity at human PAR2 expressed in human NCTC-2544 cells assessed as inhibition of SLIGKV-NH2-induced NFkappaB activation preincubated for 15 to 30 mins followed by SLIGKV-NH2 addition measured after 6 hrs by luciferase reporter gene assay
# Assay type: cell-based
Measured metric: IC50 (nM)

INSERT INTO assay_data (structure_smiles, measured_number) VALUES
  ('NCCCC[C@H](NC(=O)CNC(=O)Nc1ccc2c(c1)c(CN1CCCC1)cn2Cc1c(Cl)cccc1Cl)C(=O)N[C@@H](Cc1ccccc1)C(=O)NC(c1ccccc1)c1ccccc1', 1100);

====

# Test target: Proteinase-activated receptor 2 (Homo sapiens, UniProt P55085)
# Assay text: Displacement of [3H]-2-furoyl-LIGRL-NH2 from human PAR2 expressed in human NCTC-2544 cells after 60 mins by scintillation counting analysis
# Format: cell-based
pIC50: −log10 of the molar value. Where a SMILES comes first, the peptide text is derived from it. [ ]: non-standard residue; d: D form. The star is where a group is joined. Orn = NCCC[C@H](N)C(=O)O; 2Furoyl = O=C(c1ccco1)*
Measured metric: pIC50

INSERT INTO results (compound, measured_metric, measured_number) VALUES
  ('CC[C@H](C)[C@H](NC(=O)[C@H](CC(C)C)NC(=O)c1ccco1)C(=O)NCC(=O)N[C@@H](CCCN=C(N)N)C(=O)N[C@@H](CC(C)C)C(=O)N[C@@H](CCCN)C(N)=O (2Furoyl-LIGRL[Orn]-NH2)', 'pIC50', 7.00);
